Recorded CC50 at 48 h, one value per entry.
# assay-notes: Cytotoxicity against human HepG2 cells assessed as reduction in cell viability incubated for 48 hrs by PrestoBlue reagent based assay
# Type: toxicity

| smiles-code | CC50 at 48 h |
| --- | --- |
| O=C(O)CCc1nccc2c1[nH]c1cc(O)ccc12 | > 100 µM |
| O=c1ccc2nccc3c4ccc(O[C@@H]5O[C@H](CO)[C@@H](O)[C@H](O)[C@H]5O)cc4n1c23 | > 100 µM |
| CC1=CC(=O)[C@@H](O)[C@]2(C)[C@H]3[C@]4(O)OC[C@@]35[C@@H](C[C@@H]12)OC(=O)[C@H](O)[C@@]5(O)[C@](C)(O)[C@H]4O | > 100 µM |
| COc1ccc2c3ccnc4ccc(=O)n(c2c1)c43 | > 100 µM |

---

# assay-notes: Cytotoxicity against human Calu-3 cells assessed as reduction in cell viability incubated for 48 hrs by PrestoBlue reagent based assay
# Format: toxicity
Measured CC50 at 48 h, listed per entry for reference.
readout-name: CC50 at 48 h

| molecule | result |
| --- | --- |
| CC1=CC(=O)[C@@H](O)[C@]2(C)[C@H]3[C@]4(O)OC[C@@]35[C@@H](C[C@@H]12)OC(=O)C[C@H]5[C@](C)(O)[C@H]4O | 98.7 µM |
| CC1=CC(=O)[C@@H](O)[C@]2(C)[C@H]3[C@]4(O)OC[C@@]35[C@@H](C[C@@H]12)OC(=O)[C@H](O)[C@@]5(O)[C@]1(CO1)[C@H]4O | > 100 µM |
| COc1ccc2c(c1)[nH]c1c(CCC(=O)O)nccc12 | > 100 µM |
| CCC(CC)COC(=O)[C@H](C)N[P@](=O)(OC[C@H]1O[C@@](C#N)(c2ccc3c(N)ncnn23)[C@H](O)[C@@H]1O)Oc1ccccc1 | > 100 µM |
| O=C(O)CCc1nccc2c1[nH]c1cc(O)ccc12 | > 100 µM |
| COc1ccc2c3ccnc4ccc(=O)n(c2c1)c43 | > 100 µM |
| CC1=CC(=O)[C@@H](O)[C@]2(C)[C@H]3[C@]4(O)OC[C@@]35[C@@H](C[C@@H]12)OC(=O)[C@H](O)[C@@]5(O)[C@](C)(O)[C@H]4O | > 100 µM |
| O=c1ccc2nccc3c4ccc(O[C@@H]5O[C@H](CO)[C@@H](O)[C@H](O)[C@H]5O)cc4n1c23 | > 100 µM |
| C=C1[C@@H](O)[C@@]2(O)OC[C@]34[C@H]2[C@@]2(C)[C@H](O)C(=O)C=C(C)[C@@H]2C[C@H]3OC(=O)[C@H](O)[C@@]14O | 88.1 µM |
| O=c1ccc2nccc3c4ccccc4n1c23 | > 100 µM |
| O=c1ccc2nccc3c4ccc(O)cc4n1c23 | > 100 µM |
| CC1=CC(=O)[C@@H](O)[C@]2(C)C3[C@@H](O)[C@@H]4OC(=O)[C@@H]([C@H]4C)[C@]3(C)C(=O)C[C@@H]12 (stereo partly drawn) | 41.9 µM |
| O=C(O)CCc1nccc2c1[nH]c1ccccc12 | > 100 µM |

---

Below is a list of entries, each paired with its recorded Activity value.
# Test system: HCT-8
# assay-notes: Cytotoxicity against human HCT-8 cells assessed as redcution in cell viability at 10 uM incubated for 96 hrs by PrestoBlue reagent based assay relative to control
# Format: toxicity
# condition-parameters: hct-8, 96 h

| molecule | Activity / % |
| --- | --- |
| C=C1CC[C@@H]2[C@](C)(CO)[C@H](O)CC[C@@]2(C)[C@@H]1C/C=C1/C(=O)OC[C@H]1O [ANDROGRAPHOLIDE] | 93.47 |
| CC1=CC(=O)[C@@H](O)[C@]2(C)C3[C@@H](O)[C@@H]4OC(=O)[C@@H]([C@H]4C)[C@]3(C)C(=O)C[C@@H]12 (stereo partly drawn) | 71.14 |
| CC1=CC(=O)[C@@H](O)[C@]2(C)[C@H]3[C@]4(O)OC[C@@]35[C@@H](C[C@@H]12)OC(=O)[C@H](O)[C@@]5(O)[C@](C)(O)[C@H]4O | 70.13 |
| COc1ccc2c(c1)[nH]c1c(CCC(=O)O)nccc12 | 108.23 |
| CCC(CC)COC(=O)[C@H](C)N[P@](=O)(OC[C@H]1O[C@@](C#N)(c2ccc3c(N)ncnn23)[C@H](O)[C@@H]1O)Oc1ccccc1 [REMDESIVIR] | 96.21 |
| COc1ccc2c3ccnc4ccc(=O)n(c2c1)c43 | 33.49 |
| CC1=CC(=O)[C@@H](O)[C@]2(C)[C@H]3[C@]4(O)OC[C@@]35[C@@H](C[C@@H]12)OC(=O)C[C@H]5[C@](C)(O)[C@H]4O | 56.66 |
| O=C(O)CCc1nccc2c1[nH]c1ccccc12 | 108.05 |

---

# assay-notes: Cytotoxicity against African green monkey Vero cells assessed as reduction in cell viability incubated for 48 hrs by PrestoBlue reagent based assay
# Assay type: toxicity
# condition-parameters: chlorocebus sabaeus
Attribute: CC50 at 48 h

| compound | CC50 at 48 h |
| --- | --- |
| O=C(O)CCc1nccc2c1[nH]c1cc(O)ccc12 | > 100 µM |
| CC1=CC(=O)[C@@H](O)[C@]2(C)[C@H]3[C@]4(O)OC[C@@]35[C@@H](C[C@@H]12)OC(=O)C[C@H]5[C@](C)(O)[C@H]4O | 26.2 µM |
| C=C1[C@@H](O)[C@@]2(O)OC[C@]34[C@H]2[C@@]2(C)[C@H](O)C(=O)C=C(C)[C@@H]2C[C@H]3OC(=O)[C@H](O)[C@@]14O [EURYCOMANONE] | > 100 µM |
| O=c1ccc2nccc3c4ccccc4n1c23 [CANTHIN-6-ONE] | > 100 µM |
| O=c1ccc2nccc3c4ccc(O[C@@H]5O[C@H](CO)[C@@H](O)[C@H](O)[C@H]5O)cc4n1c23 | > 100 µM |
| COc1ccc2c(c1)[nH]c1c(CCC(=O)O)nccc12 | > 100 µM |
| CC1=CC(=O)[C@@H](O)[C@]2(C)[C@H]3[C@]4(O)OC[C@@]35[C@@H](C[C@@H]12)OC(=O)[C@H](O)[C@@]5(O)[C@]1(CO1)[C@H]4O | > 100 µM |
| CC1=CC(=O)[C@@H](O)[C@]2(C)[C@H]3[C@]4(O)OC[C@@]35[C@@H](C[C@@H]12)OC(=O)[C@H](O)[C@@]5(O)[C@](C)(O)[C@H]4O | > 100 µM |
| COc1ccc2c3ccnc4ccc(=O)n(c2c1)c43 | > 100 µM |
| CC1=CC(=O)[C@@H](O)[C@]2(C)C3[C@@H](O)[C@@H]4OC(=O)[C@@H]([C@H]4C)[C@]3(C)C(=O)C[C@@H]12 (stereo partly drawn) | 57.1 µM |
| CCC(CC)COC(=O)[C@H](C)N[P@](=O)(OC[C@H]1O[C@@](C#N)(c2ccc3c(N)ncnn23)[C@H](O)[C@@H]1O)Oc1ccccc1 [REMDESIVIR] | > 100 µM |
| O=c1ccc2nccc3c4ccc(O)cc4n1c23 | > 100 µM |
| O=C(O)CCc1nccc2c1[nH]c1ccccc12 | > 100 µM |

---

# assay-notes: Selectivity index, ratio of CC50 for cytotoxicity against human HCT-8 cells to IC50 for antiviral activity against HCoV-OC43 infected in human HCT-8 cells
# Assay type: toxicity, cell-based
# condition-parameters: read-out: Ratio CC50/IC50
Decision: selectivity ratio beneath 20 gives yes; selectivity ratio meeting or exceeding 20 gives no.

| molecule | assigned-category |
| --- | --- |
| CC1=CC(=O)[C@@H](O)[C@]2(C)[C@H]3[C@]4(O)OC[C@@]35[C@@H](C[C@@H]12)OC(=O)C[C@H]5[C@](C)(O)[C@H]4O | no |
| C=C1[C@@H](O)[C@@]2(O)OC[C@]34[C@H]2[C@@]2(C)[C@H](O)C(=O)C=C(C)[C@@H]2C[C@H]3OC(=O)[C@H](O)[C@@]14O | yes |
| CC1=CC(=O)[C@@H](O)[C@]2(C)C3[C@@H](O)[C@@H]4OC(=O)[C@@H]([C@H]4C)[C@]3(C)C(=O)C[C@@H]12 (stereo partly specified) | no |
| CC1=CC(=O)[C@@H](O)[C@]2(C)[C@H]3[C@]4(O)OC[C@@]35[C@@H](C[C@@H]12)OC(=O)[C@H](O)[C@@]5(O)[C@](C)(O)[C@H]4O | no |
| CCC(CC)COC(=O)[C@H](C)N[P@](=O)(OC[C@H]1O[C@@](C#N)(c2ccc3c(N)ncnn23)[C@H](O)[C@@H]1O)Oc1ccccc1 | no |

---

# System: SARS-CoV-2
# assay-notes: microbe, parasite or virus in culture
# Format: functional, organism-based, Vero E6
# condition-parameters: Severe acute respiratory syndrome coronavirus 2, Vero C1008
pIC50: −log10 of the molar value.

| compound | pIC50 |
| --- | --- |
| COC(=O)[C@@]12OC[C@]34[C@H]([C@@H](O)[C@@H]1O)[C@@]1(C)CC(=O)C(O)=C(C)[C@@H]1C[C@H]3OC(=O)[C@H](OC(=O)C=C(C)C)[C@@H]24 | 7.31 |
| COC(=O)[C@@]12OC[C@]34[C@H]([C@@H](O)[C@@H]1O)[C@@]1(C)CC(=O)C(O)=C(C)[C@@H]1C[C@H]3OC(=O)[C@H](OC(=O)CC(C)C)[C@@H]24 [BRUCEINE A] | 7.96 |
